Each recorded value in this set is attributed to patent EP0527889B1.

// reported MIC values per item
- System: Streptococcus pyrogenes EES61
- PROTOCOL_NOTES: In vitro antibacterial activity, MIC by agar dilution
- Type: cell-based
- SETUP_CONDITIONS: BHI agar, 35-37°C, 20-24 hours, unit assumed
Counter-ions that a name gives are not always drawn.
ENDPOINT: MIC values (µg/mL)

- CC(=O)N[C@H]1C[C@H](C)N(c2nc3c(-c4ccc(F)cc4F)cc(C(=O)O)c(=O)n3cc2F)C1 [Example 169]: 0.78
- CCc1cc(C(=O)O)c(=O)n2ccc(N3CCNC(C)C3)cc12.Cl (stereo not drawn) [Example 64]: 50
- CN1CCN(c2nc3c(-c4ccc(F)cc4)cc(C(=O)O)c(=O)n3cc2F)CC1 [Example 1]: 6.2
- NC1CCN(c2nc3c(C4CC4)cc(C(=O)O)c(=O)n3cc2F)C1 (stereo not drawn) [Example 157, hydrochloride salt]: 1.56
- CN1CCN(c2nc3c(-c4ccc(F)cc4)cc(C(=O)O)c(=O)n3cc2F)CC1 [Example 2]: 6.2
- CN1CCN(c2nc3c(-c4ccc(F)cc4F)cc(C(=O)O)c(=O)n3cc2F)CC1 [Example 159]: 3.1
- C[C@H](N)C(=O)N[C@@H](C)C(=O)N[C@H]1C[C@H](C)N(c2nc3c(-c4ccc(F)cc4F)cc(C(=O)O)c(=O)n3cc2F)C1 [Example 173, hydrochloride]: 12.5
- CC(C)(C)OC(=O)NC1CCN(c2nc3c(-c4ccc(F)cc4F)cc(C(=O)O)c(=O)n3cc2F)C1 (stereo not drawn) [Example 160]: 1.56
- CCC[C@H](N)C(=O)NC1CCN(c2nc3c(-c4ccc(F)cc4F)cc(C(=O)O)c(=O)n3cc2F)C1 (stereo partly drawn) [Example 166, hydrochloride salt]: 1.56
- C[C@H](N)C(=O)N[C@@H](C)C(=O)NC1CCN(c2nc3c(-c4ccc(F)cc4F)cc(C(=O)O)c(=O)n3cc2F)C1 (stereo partly drawn) [Example 168, hydrochloride]: 6.2
- NC1CCN(c2nc3c(-c4ccc(F)cc4F)cc(C(=O)O)c(=O)n3cc2F)C1 (stereo not drawn) [Example 161]: 0.39
- O=C(O)c1cc(C2CC2)c2nc(N3CCNCC3)c(F)cn2c1=O [Example 164]: 12.5
- C[C@H](N)C(=O)NC1CCN(c2nc3c(-c4ccc(F)cc4F)cc(C(=O)O)c(=O)n3cc2F)C1 (stereo partly drawn) [Example 167, hydrochloride]: 6.2
